# experimental_target: T1, biotinylated native human ApoC3 (human, UniProt P02656 21-99, biotinylated (site not stated))
# T1 construct: also called biotinylated human ApoC3
# T1 sequence (P02656 21-99): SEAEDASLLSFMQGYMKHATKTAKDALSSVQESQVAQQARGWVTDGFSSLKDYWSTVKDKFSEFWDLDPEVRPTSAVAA
# experiment_notes: SPR, IgG1 over biotinylated ApoC3 on SA chip, pH 7.4
Known koff of a selection of binders
Express your answer in s⁻¹, writing the number without its unit.

Recorded koff, per entry:
binder	koff (s⁻¹)
mAb11 (antibody, IgG1, V domains shown, Produced as full length IgG1 (kappa) in ExpiCHO-S cells; also called humanized anti-ApoC3 antibody mAb11) VH: QLVESGGGLVQPGGSLRLSCAASGFTFSTYSMRWVRQVPGKGLEWVSSIHTEGGGTAYRDSVKGRFTISRDNAKNTLYLQMNNLRAEDTAVYYCVIAGYSDWGQGTLVTVSS VL: DIVMTQSPLSLSVTPGEPASISCKTSQGLVHSDGKTYFYWFLQKPGQSPQQLIYQVSNRASGVPDRFSGSGSGTDFTLKISRVEAEDVGVYYCAHGTYYPHTFGQGTRLEIK	3.8e-05
5E5WT human IgG1 (antibody, V domains shown) VH: QLQLVESGGGLVQPGGSLRLSCAASGFTFGTYSMRWVRQVPRKALEWVSSISTDGGGTAYRDSVKGRFTISRDNAKNTLYLQMNNLKPEDTAIYYCVIAGYSDWGQGTQVTVSS VL: ATMLTQSPGSLSVVPGESASISCKTSQGLVHSDGKTYFYWFLQKPGQSPQQLIYQVSNRASGVPDRFTGSGSGTDFTLKISGVKAEDAGVYYCAQGTYYPHTFGSGTRLEIK	1.79e-05
mAb3 (antibody, IgG1, V domains shown, Produced as full length IgG1 (kappa) in ExpiCHO-S cells; also called humanized anti-ApoC3 antibody mAb3) VH: QLVESGGGLVQPGGSLRLSCAASGFTFGTYSMRWVRQAPGKGLEWVSSIHTEGGGTAYRDSVKGRFTISRDNAKNTLYLQMNSLRAEDTAIYYCVIAGYSDWGQGTLVTVSS VL: DIVMTQSPLSLPVTPGESASISCKTSQGLVHSDGKTYFYWFLQKPGQSPQQLIYQVSNRASGVPDRFTGSGSGTDFTLKISRVKAEDAGVYYCAHGTYYPHTFGQGTRLEIK	2.33e-05
mAb15 (antibody, IgG1, V domains shown, Produced as full length IgG1 (kappa) in ExpiCHO-S cells; also called humanized anti-ApoC3 antibody mAb15) VH: QLVESGGGLVQPGGSLRLSCAASGFTFGTYSMRWVRQAPGKGLEWVSSIHTEAGGTAYRDSVKGRFTISRDNAKNTLYLQMNNLKAEDTAIYYCVIAGYSDWGQGTQVTVSS VL: DIVMTQSPLSLPVTPGESASISCKTSQGLVHSGGKTYFYWFLQKPGQSPQQLIYQVSNRASGVPDRFTGSGSGTDFTLKISRVEAEDAGVYYCAQGTYYPHTFGSGTRLEIK	2.77e-06

Now, please, on to the next binder.
Recorded result, mAb1 (antibody, IgG1, V domains shown, Produced as full length IgG1 (kappa) in ExpiCHO-S cells; also called humanized anti-ApoC3 antibody mAb1) VH: QLVESGGGLVQPGGSLRLSCAASGFTFGTYSMRWVRQVPGKGLEWVSSIHTEGGGTAYRDSVKGRFTISRDNAKNTLYLQMNSLRAEDTAIYYCVIAGYSDWGQGTLVTVSS VL: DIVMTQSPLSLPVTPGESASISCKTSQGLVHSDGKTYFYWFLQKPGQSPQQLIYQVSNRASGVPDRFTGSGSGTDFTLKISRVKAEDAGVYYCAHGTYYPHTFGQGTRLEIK , koff: 1.18e-05

Entry source: patent US20200239555A1
